Tested on: D-283MED (Other Solid Carcinomas);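 further: after 72 h of two-drug dosing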
Experiment: Bliss excess, mean over the matrix (fraction); higher = more synergy
observable: Bliss excess
// return a plain number; no unit text

Sample answers from the record:
• C[C@@H](c1ccc2nccn2c1)n1nnc2ncc(-c3cnn(C)c3)nc21 [Savolitinib] + CC1(C)CCC(CN2CCN(c3ccc(C(=O)NS(=O)(=O)c4ccc(NCC5CCOCC5)c([N+](=O)[O-])c4)c(Oc4cnc5[nH]ccc5c4)c3)CC2)=C(c2ccc(Cl)cc2)C1 [Venetoclax] (first compound max 1 µM, 7x7, partner max 1 µM) = -0.0144
• Cc1cc2ncnn2cc1Nc1ncc2c(n1)n(C1CCOCC1)c(=O)n2C [AZD7648] + COc1cc([C@@H]2c3cc4c(cc3[C@@H](O[C@@H]3O[C@@H]5CO[C@@H](C)O[C@H]5[C@H](O)[C@H]3O)[C@H]3COC(=O)[C@H]23)OCO4)cc(OC)c1O [Etoposide] (first compound max 10 µM, 7x7, partner max 10 µM) = 0.0835

Would you kindly look at the next entry?
Query Bliss excess for Cn1cnc2c(F)c(Nc3ccc(Br)cc3Cl)c(C(=O)NOCCO)cc21 [Selumetinib] + C[C@@H]1COCCN1C2=NC(=NC(=C2)C3(CC3)[S@](=N)(=O)C)C4=C5C=CNC5=NC=C4 [AZD6738] (first compound max 10 µM, 7x7, partner max 10 µM) -0.0564
